Reported IC50 values follow for various molecules
target: Urease subunit alpha/Urease subunit beta (Helicobacter pylori (strain ATCC 700392 / 26695) (Campylobacterpylori), UniProt P69996); test: Inhibition of Helicobacter pylori ATCC 43504 urease assessed as ammonia production by indophenol method
Sequence (P69996 whole entry): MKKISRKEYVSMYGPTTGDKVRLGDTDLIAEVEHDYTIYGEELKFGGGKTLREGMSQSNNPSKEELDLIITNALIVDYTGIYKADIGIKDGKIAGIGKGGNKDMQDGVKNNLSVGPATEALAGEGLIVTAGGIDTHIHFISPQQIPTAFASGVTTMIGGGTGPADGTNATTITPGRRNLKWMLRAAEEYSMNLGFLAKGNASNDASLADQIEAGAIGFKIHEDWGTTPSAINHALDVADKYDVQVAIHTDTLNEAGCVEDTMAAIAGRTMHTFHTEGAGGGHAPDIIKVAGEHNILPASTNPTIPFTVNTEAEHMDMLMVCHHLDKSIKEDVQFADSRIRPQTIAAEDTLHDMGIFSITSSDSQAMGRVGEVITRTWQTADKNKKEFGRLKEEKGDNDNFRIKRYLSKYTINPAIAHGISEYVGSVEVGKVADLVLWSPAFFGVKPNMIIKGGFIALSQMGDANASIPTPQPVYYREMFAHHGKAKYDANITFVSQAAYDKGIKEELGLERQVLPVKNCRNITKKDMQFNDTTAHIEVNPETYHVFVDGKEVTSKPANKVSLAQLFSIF
Sequence (P14916 whole entry, further chain): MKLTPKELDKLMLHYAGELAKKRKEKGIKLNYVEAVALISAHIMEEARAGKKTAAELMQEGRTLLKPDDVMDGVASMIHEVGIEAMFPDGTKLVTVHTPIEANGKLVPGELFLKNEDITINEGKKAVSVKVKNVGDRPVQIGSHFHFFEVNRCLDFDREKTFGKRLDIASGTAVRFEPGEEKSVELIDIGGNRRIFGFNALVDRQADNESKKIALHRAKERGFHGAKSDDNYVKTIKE

{"molecule": "NC(Cc1ccc(O)cc1)c1ccc(O)c(O)c1O (configuration not stated)", "unit.annotation": "µM", "IC50": 47}
{"molecule": "CC(=O)NO [ACETOHYDROXAMIC ACID]", "unit.annotation": "µM", "IC50": 11}

* * *

target: Urease subunit alpha/Urease subunit beta (Helicobacter pylori (strain ATCC 700392 / 26695) (Campylobacterpylori)) (UniProt P69996+P14916); assay: Inhibition of Helicobacter pylori ATCC 43504 urease assessed as ammonia production at 400 ug/mL by indophenol method
Sequence (P14916 whole entry, looked up): as the sequence (P14916 whole entry, further chain) above
Sequence (P69996 whole entry, looked up): as the sequence (P69996 whole entry) above
Active and inactive are the calls of the source. No cut-off for these calls is given here.
property.label: inhibition

{"compound": "O=C(Cc1ccc(F)cc1)c1ccc(O)cc1O", "result": "16%"}
{"compound": "COc1ccc(CC(N)c2ccc(O)cc2O)cc1 (stereo unspecified)", "result": "73%"}
{"compound": "COc1ccc(CC(=N)c2ccc(OC)c(OC)c2OC)cc1", "result": "11%"}
{"compound": "COc1ccc(C/C(=N/O)c2ccc(OC)c(OC)c2OC)cc1", "result": "inactive"}
{"compound": "COc1cc(O)c(C(=O)Cc2ccc(OO)cc2)c(OC)c1", "result": "inactive"}
{"compound": "NC(Cc1ccc(F)cc1)c1ccc(O)c(O)c1O (stereo unspecified)", "result": "80%"}

* * *

target: Urease subunit alpha/Urease subunit beta (Helicobacter pylori (strain ATCC 700392 / 26695) (Campylobacterpylori)) (UniProt P69996+P14916); assay: Inhibition of Helicobacter pylori ATCC 43504 urease assessed as ammonia production at 400 ug/mL by indophenol method
Calls of active or inactive are those of the source. No cut-off for these calls is given here.

{"compound": "O/N=C(\\Cc1ccc(O)cc1)c1ccc(O)c(O)c1", "inhibition": "62%"}
{"compound": "COc1ccc(C/C(=N\\O)c2ccc(O)cc2O)cc1", "inhibition": "36%"}
{"compound": "NC(Cc1ccc(F)cc1)c1ccc(O)cc1O (stereo not drawn)", "inhibition": "48%"}
{"compound": "COc1cc(O)c(/C(Cc2ccc(OO)cc2)=N/O)c(OC)c1", "inhibition": "15%"}
{"compound": "O/N=C(/Cc1ccc(O)cc1)c1ccc(O)c(O)c1O", "inhibition": "73%"}
{"compound": "COc1c(O)cc(O)c(/C(Cc2ccc(O)cc2)=N/O)c1O", "inhibition": "38%"}
{"compound": "NC(Cc1ccc(O)cc1)c1c(O)cc(O)cc1O (stereo not drawn)", "inhibition": "28%"}
{"compound": "O=C(Cc1ccc([N+](=O)[O-])cc1)c1ccc(O)cc1O", "inhibition": "inactive"}
{"compound": "O/N=C(\\Cc1ccc(F)cc1)c1ccc(O)c(O)c1O", "inhibition": "55%"}
{"compound": "NC(Cc1ccc(O)cc1)c1ccc(O)c(O)c1O (stereo not drawn)", "inhibition": "97.3%"}
{"compound": "O=C(Cc1ccc(F)cc1)c1ccc(O)c(O)c1O", "inhibition": "44%"}
{"compound": "O/N=C(\\Cc1ccc(O)cc1)c1c(O)cc(O)cc1O", "inhibition": "13%"}
{"compound": "O=[N+]([O-])c1ccc(C/C(=N/O)c2ccc(O)cc2O)cc1", "inhibition": "inactive"}
{"compound": "O/N=C(/Cc1ccc(F)cc1)c1ccc(O)cc1O", "inhibition": "23%"}
{"compound": "COc1ccc(CC(=O)c2ccc(OC)c(OC)c2OC)cc1", "inhibition": "inactive"}
{"compound": "O=C(Cc1ccc(O)cc1)c1c(O)cc(O)cc1O", "inhibition": "inactive"}
{"compound": "COc1cc(O)c(C(N)Cc2ccc(OO)cc2)c(OC)c1 (stereo not drawn)", "inhibition": "inactive"}
{"compound": "NC(Cc1ccc([N+](=O)[O-])cc1)c1ccc(O)cc1O (stereo not drawn)", "inhibition": "inactive"}

Taken from ChEMBL document CHEMBL1137689.
